This collection of values is drawn from paper PMC11435058.

Quick reference: GI50 of the listed items.
- Tested on: SF-295
- RUN_DESCRIPTION: NCI-60 anticancer screen (SRB; single dose and five doses)
- CONDITION_DETAILS: Homo sapiens, SF-295
Reply with just the number (in µM).

- MOL_SMILES: "Cc1[nH]c(=S)sc1C(=O)/C=C/c1cccc([N+](=O)[O-])c1"
  READING_UNIT: "µM"
  GI50: 3.63
- MOL_SMILES: "COc1cc(/C=C/C(=O)c2sc(=S)[nH]c2C)cc(OC)c1OC"
  READING_UNIT: "µM"
  GI50: 5.5
- MOL_SMILES: "Cc1[nH]c(=S)sc1C(=O)/C=C/c1cccc(Cl)c1"
  READING_UNIT: "µM"
  GI50: 4.37

For `Cc1[nH]c(=S)sc1C(=O)/C=C/c1ccc(F)cc1` the compound record lists GI50 as 12.5

response.value for `Cc1[nH]c(=S)sc1C(=O)/C=C/c1ccc(Cl)cc1` (field: GI50) = 15.8

The reported GI50 of the compound `Cc1[nH]c(=S)sc1C(=O)/C=C/c1ccc([N+](=O)[O-])cc1` was 16.1

Measured GI50 of `Cc1[nH]c(=S)sc1C(=O)/C=C/c1ccc(Br)cc1` : 12.7

----------
# activity at 10 µM per record follows
- Tested on: SK-MEL-2
- RUN_DESCRIPTION: NCI-60 anticancer screen (SRB; single dose and five doses)
- CONDITION_DETAILS: Homo sapiens, SK-MEL-2, 48 h, read-out: Growth Percentage
For clarity, give the value followed by its unit.

activity at 10 µM in this record for `COc1ccc(/C=C/C(=O)c2sc(=S)[nH]c2C)c(OC)c1` : 64.7%

Record summary for `Cc1[nH]c(=S)sc1C(=O)/C=C/c1ccc([N+](=O)[O-])cc1` : reported activity at 10 µM = 49.5%

Form field activity at 10 µM, entry `Cc1[nH]c(=S)sc1C(=O)/C=C/c1cccc([N+](=O)[O-])c1` : 16.9%

Just so you know, measured activity at 10 µM for `COc1ccc(/C=C/C(=O)c2sc(=S)[nH]c2C)cc1` came out at 80.3%

Note to self: activity at 10 µM recorded for `Cc1[nH]c(=S)sc1C(=O)/C=C/c1cccc(F)c1` was 81.2%

get_value(item= `COc1ccc(/C=C/C(=O)c2sc(=S)[nH]c2C)cc1OC` , readout=activity at 10 µM) returns 68.6%

Note to self: activity at 10 µM recorded for `Cc1ccc(/C=C/C(=O)c2sc(=S)[nH]c2C)cc1` was 89.8%

So for `COc1cccc(/C=C/C(=O)c2sc(=S)[nH]c2C)c1OC` , the logged activity at 10 µM turned out to be 94.2%

Given item `Cc1[nH]c(=S)sc1C(=O)/C=C/c1ccccc1` , the value recorded as its activity at 10 µM is 68.2%

Measured activity at 10 µM of `Cc1[nH]c(=S)sc1C(=O)/C=C/c1ccccc1Cl` : 84.8%

// field: activity at 10 µM; key: `Cc1[nH]c(=S)sc1C(=O)/C=C/c1ccc(N(C)C)cc1` ; value = 88.9%

Reported activity at 10 µM for `Cc1[nH]c(=S)sc1C(=O)/C=C/c1ccc(F)cc1` was 56.6%

For reference, reported activity at 10 µM for `Cc1[nH]c(=S)sc1C(=O)/C=C/c1ccc(Br)cc1` stands at 62.3%

So for `Cc1[nH]c(=S)sc1C(=O)/C=C/c1cccc(Cl)c1` , the logged activity at 10 µM turned out to be 32.1%

Lab book: activity at 10 µM of `COc1cc(/C=C/C(=O)c2sc(=S)[nH]c2C)cc(OC)c1OC` noted as 34.9%

Item: `Cc1[nH]c(=S)sc1C(=O)/C=C/c1ccc(Cl)cc1` | activity at 10 µM: 58.4%

----------
- System: BT-549
- RUN_DESCRIPTION: NCI-60 anticancer screen (SRB; single dose and five doses)
- CONDITION_DETAILS: Homo sapiens, BT-549, read-out: TGI
MEASUREMENT_TYPE: IC (TGI) (µM)
Supply the numeric figure in µM, leaving out any unit text.

Recorded results for 5 compounds are shown here.
- COMPOUND: "Cc1[nH]c(=S)sc1C(=O)/C=C/c1cccc(Cl)c1"
  READING_UNIT: "µM"
  IC (TGI): 6.17
- COMPOUND: "Cc1[nH]c(=S)sc1C(=O)/C=C/c1ccc(Cl)cc1"
  READING_UNIT: "µM"
  IC (TGI): 20.4
- COMPOUND: "Cc1[nH]c(=S)sc1C(=O)/C=C/c1ccc(F)cc1"
  READING_UNIT: "µM"
  IC (TGI): 8.27
- COMPOUND: "Cc1[nH]c(=S)sc1C(=O)/C=C/c1ccc([N+](=O)[O-])cc1"
  READING_UNIT: "µM"
  IC (TGI): 19.3
- COMPOUND: "Cc1[nH]c(=S)sc1C(=O)/C=C/c1ccc(Br)cc1"
  READING_UNIT: "µM"
  IC (TGI): 7.28

In plain terms, `COc1cc(/C=C/C(=O)c2sc(=S)[nH]c2C)cc(OC)c1OC` has a documented IC (TGI) of 10.7

Noted for COc1ccc(/C=C\c2cc(OC)c(OC)c(OC)c2)cc1O [CA-4, Combretastatin-A4, reference compound] : its IC (TGI) reads 8.09

Record summary for `Cc1[nH]c(=S)sc1C(=O)/C=C/c1cccc([N+](=O)[O-])c1` : reported IC (TGI) = 14.8

----------
- System: NCI-H522
- RUN_DESCRIPTION: NCI-60 anticancer screen (SRB; single dose and five doses)
- CONDITION_DETAILS: Homo sapiens, NCI-H522, read-out: LC50
MEASUREMENT_TYPE: CC50

`Cc1[nH]c(=S)sc1C(=O)/C=C/c1cccc([N+](=O)[O-])c1` tested on NCI-H522 gave CC50: 46.8 µM

// returns CC50 for `Cc1[nH]c(=S)sc1C(=O)/C=C/c1ccc(F)cc1` with NCI-H522; value = 46.8 µM

Query `Cc1[nH]c(=S)sc1C(=O)/C=C/c1ccc(Cl)cc1` on NCI-H522; CC50 returned: 52.5 µM

Measured CC50 for this entry `Cc1[nH]c(=S)sc1C(=O)/C=C/c1cccc(Cl)c1` on NCI-H522: 45.7 µM

Summary line: `Cc1[nH]c(=S)sc1C(=O)/C=C/c1ccc(Br)cc1` , NCI-H522, reported CC50 = 41.2 µM

The reported CC50 value, NCI-H522, for `Cc1[nH]c(=S)sc1C(=O)/C=C/c1ccc([N+](=O)[O-])cc1` reads 51.5 µM

Entry `COc1cc(/C=C/C(=O)c2sc(=S)[nH]c2C)cc(OC)c1OC` : CC50 on NCI-H522 = 40.7 µM

----------
- Test system: HCT-116
- RUN_DESCRIPTION: NCI-60 anticancer screen (SRB; single dose and five doses)
- CONDITION_DETAILS: Homo sapiens, HCT-116, 48 h, read-out: Growth Percentage
MEASUREMENT_TYPE: activity at 10 µM (%)
The response must be a number in % with no trailing unit.

Completed entries (count: 6):
- MOLECULE: "Cc1[nH]c(=S)sc1C(=O)/C=C/c1cccc([N+](=O)[O-])c1 [2h]"
  activity at 10 µM [%]: -6.25
- MOLECULE: "COc1ccc(/C=C/C(=O)c2sc(=S)[nH]c2C)c(OC)c1 [2n]"
  activity at 10 µM [%]: 62.3
- MOLECULE: "COc1ccc(/C=C/C(=O)c2sc(=S)[nH]c2C)cc1OC [2o]"
  activity at 10 µM [%]: 34.5
- MOLECULE: "COc1cc(/C=C/C(=O)c2sc(=S)[nH]c2C)cc(OC)c1OC [2p]"
  activity at 10 µM [%]: 6.81
- MOLECULE: "Cc1[nH]c(=S)sc1C(=O)/C=C/c1ccc(Cl)cc1 [2f]"
  activity at 10 µM [%]: 6.98
- MOLECULE: "Cc1[nH]c(=S)sc1C(=O)/C=C/c1ccc(N(C)C)cc1 [2k]"
  activity at 10 µM [%]: 72.2

Summary for this molecule, Cc1[nH]c(=S)sc1C(=O)/C=C/c1ccc([N+](=O)[O-])cc1 [2i] : activity at 10 µM is -47.8

Briefly, activity at 10 µM measured for Cc1ccc(/C=C/C(=O)c2sc(=S)[nH]c2C)cc1 [2j] : 46.7

get_value(item= Cc1[nH]c(=S)sc1C(=O)/C=C/c1ccccc1 [2a] , readout=activity at 10 µM) returns 49.4

Entry COc1cccc(/C=C/C(=O)c2sc(=S)[nH]c2C)c1OC [2m] ; activity at 10 µM = 46.5
